In this section, each of the molecules is paired with its reported pIC50.
- testedTarget: GCN2 (Homo sapiens, UniProt Q9P2K8)
- Sequence (Q9P2K8 whole entry, species assumed): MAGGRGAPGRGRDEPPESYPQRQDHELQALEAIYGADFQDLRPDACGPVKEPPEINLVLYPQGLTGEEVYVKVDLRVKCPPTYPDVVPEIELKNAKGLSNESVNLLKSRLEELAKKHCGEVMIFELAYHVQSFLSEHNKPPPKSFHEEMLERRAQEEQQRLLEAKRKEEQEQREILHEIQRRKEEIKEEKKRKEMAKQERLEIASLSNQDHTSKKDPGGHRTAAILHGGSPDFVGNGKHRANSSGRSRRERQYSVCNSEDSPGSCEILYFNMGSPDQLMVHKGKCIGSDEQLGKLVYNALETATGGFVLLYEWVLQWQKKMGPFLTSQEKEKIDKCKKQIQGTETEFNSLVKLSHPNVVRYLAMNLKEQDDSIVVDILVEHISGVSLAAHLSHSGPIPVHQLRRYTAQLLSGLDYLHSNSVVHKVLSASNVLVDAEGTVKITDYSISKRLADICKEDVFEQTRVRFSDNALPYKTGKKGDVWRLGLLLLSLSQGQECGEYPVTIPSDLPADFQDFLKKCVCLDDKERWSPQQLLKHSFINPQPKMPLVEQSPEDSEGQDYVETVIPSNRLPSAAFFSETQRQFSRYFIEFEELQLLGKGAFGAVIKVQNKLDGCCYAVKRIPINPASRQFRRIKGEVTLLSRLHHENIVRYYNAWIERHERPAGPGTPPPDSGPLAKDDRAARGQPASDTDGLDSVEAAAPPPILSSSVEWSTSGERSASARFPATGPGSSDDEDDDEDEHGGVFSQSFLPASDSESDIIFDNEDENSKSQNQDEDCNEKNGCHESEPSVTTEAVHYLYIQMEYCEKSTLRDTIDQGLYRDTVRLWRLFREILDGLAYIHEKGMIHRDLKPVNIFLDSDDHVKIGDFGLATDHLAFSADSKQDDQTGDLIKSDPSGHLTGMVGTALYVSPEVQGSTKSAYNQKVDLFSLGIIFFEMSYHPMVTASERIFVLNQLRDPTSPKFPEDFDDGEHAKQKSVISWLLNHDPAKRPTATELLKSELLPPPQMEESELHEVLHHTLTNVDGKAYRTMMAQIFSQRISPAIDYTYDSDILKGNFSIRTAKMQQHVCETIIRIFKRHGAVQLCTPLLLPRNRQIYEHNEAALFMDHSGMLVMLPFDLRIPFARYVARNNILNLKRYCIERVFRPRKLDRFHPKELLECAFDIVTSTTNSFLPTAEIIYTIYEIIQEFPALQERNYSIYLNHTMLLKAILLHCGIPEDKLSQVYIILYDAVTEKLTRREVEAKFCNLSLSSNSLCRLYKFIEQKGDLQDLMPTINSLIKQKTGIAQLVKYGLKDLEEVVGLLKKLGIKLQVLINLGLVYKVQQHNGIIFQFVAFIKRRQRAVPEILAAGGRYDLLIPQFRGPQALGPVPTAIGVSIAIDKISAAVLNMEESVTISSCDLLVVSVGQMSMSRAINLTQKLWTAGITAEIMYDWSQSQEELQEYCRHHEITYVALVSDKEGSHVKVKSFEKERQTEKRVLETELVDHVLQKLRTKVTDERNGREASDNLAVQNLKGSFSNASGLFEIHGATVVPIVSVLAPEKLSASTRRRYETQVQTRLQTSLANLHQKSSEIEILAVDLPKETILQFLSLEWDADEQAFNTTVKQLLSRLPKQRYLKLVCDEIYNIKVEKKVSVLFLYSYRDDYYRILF
pIC50: −log10 of the molar value.

{"columns": ["molecule", "pIC50"],
 "data": [
  ["CC12Oc3ccc(cc3NC1=O)Nc1nc(ncc1F)Nc1cccc(c1)S(=O)(=O)NCCC(=O)NCCCNC2=O (stereo not drawn)", "5.52 to 6.52"],
  ["COc1cc2ccc1OCCCCNC(=O)C1(C)Oc3ccc(cc3NC1=O)Nc1nc(ncc1F)N2 (stereo not drawn)", "5.52 to 6.52"],
  ["COc1cc2ccc1OCCCCNC(=O)[C@@H](Cc1ccccc1)NC(=O)[C@]1(C)Oc3ccc(cc3NC1=O)Nc1nc(ncc1F)N2", "4.30 to 5.52"]
]}
